Assay: Pharmacokinetic study of PGI alone and after repeated GAO in rats
Format: in vivo, rat
Details: male, SD, rat, plasma, iv, 9 mg/kg, CL, Combined group: PGI 9 mg kg−1 tail vein after 14 days of repeated GAO 51 mg kg−1, rats, n = 8
Metric: clearance (mL/min/kg)
Just the number in mL/min/kg, nothing appended.

INPUT: Give the measured clearance for OC[C@H]1O[C@@H](Oc2cc(/C=C/c3cc(O)cc(O)c3)ccc2O)[C@H](O)[C@@H](O)[C@@H]1O [PG, Piceatannol-3′-O-β-D-glucopyranoside]
OUTPUT: 30.4

----------
Test: Pharmacokinetic study of PGI alone and after repeated GAO in rats
Assay type: in vivo, rat
Settings: male, SD, rat, plasma, iv, 9 mg/kg, CL, Control group: PGI 9 mg kg−1 tail vein, rats, n = 8
Method: A total of 100 μl of rat plasma sample and 10 μl of polydatin solution (IS) were mixed with 400 μl of ice acetonitrile; the mixture was vortexed for 3 min and centrifuged at 13,200 × g under 4℃ for 20 min. The supernatant was transferred to another centrifuge tube and dry with nitrogen, re-dissolved with 100 μl of 80% methanol-H2O (v/v). […] Pharmacokinetic parameters were calculated under a noncompartmental model using Drug and Statistics 1.0 (DAS 1.0) software.
Metric: clearance (mL/min/kg)
Respond numerically; units are mL/min/kg and should not be typed.

INPUT: Give the reported clearance for this molecule. OC[C@H]1O[C@@H](Oc2cc(/C=C/c3cc(O)cc(O)c3)ccc2O)[C@H](O)[C@@H](O)[C@@H]1O [PG, Piceatannol-3′-O-β-D-glucopyranoside]
OUTPUT: 46.2

----------
Assay: Pharmacokinetic study of PGI alone and after repeated GAO in rats
Format: in vivo, rat
Details: male, SD, rat, plasma, iv, 9 mg/kg, Combined group: PGI 9 mg kg−1 tail vein after 14 days of repeated GAO 51 mg kg−1, rats, n = 8
Metric: AUC(0-inf) (ng·h/mL)
Please state the figure in ng·h/mL; there is no need to write the unit.

INPUT: Please give measured AUC(0-inf) of the following entry: OC[C@H]1O[C@@H](Oc2cc(/C=C/c3cc(O)cc(O)c3)ccc2O)[C@H](O)[C@@H](O)[C@@H]1O [PG, Piceatannol-3′-O-β-D-glucopyranoside]
OUTPUT: 5010

----------
Assay: Pharmacokinetic study of PGI alone and after repeated GAO in rats
Format: in vivo, rat
Conditions: male, SD, rat, plasma, iv, 9 mg/kg, Combined group: PGI 9 mg kg−1 tail vein after 14 days of repeated GAO 51 mg kg−1, rats, n = 8
Metric: AUC(0-t) (ng·h/mL)
Your answer is read as ng·h/mL, so omit the unit and give the number.

INPUT: Tell me AUC(0-t) reported for OC[C@H]1O[C@@H](Oc2cc(/C=C/c3cc(O)cc(O)c3)ccc2O)[C@H](O)[C@@H](O)[C@@H]1O [PG, Piceatannol-3′-O-β-D-glucopyranoside]
OUTPUT: 4900

----------
Assay: Pharmacokinetic study of PGI alone and after repeated GAO in rats
Assay type: in vivo, rat
Conditions: male, SD, rat, plasma, iv, 9 mg/kg, Control group: PGI 9 mg kg−1 tail vein, rats, n = 8
Protocol: A total of 100 μl of rat plasma sample and 10 μl of polydatin solution (IS) were mixed with 400 μl of ice acetonitrile; the mixture was vortexed for 3 min and centrifuged at 13,200 × g under 4℃ for 20 min. The supernatant was transferred to another centrifuge tube and dry with nitrogen, re-dissolved with 100 μl of 80% methanol-H2O (v/v). […] Pharmacokinetic parameters were calculated under a noncompartmental model using Drug and Statistics 1.0 (DAS 1.0) software.
Metric: AUC(0-inf)
Give the number first and the unit second.

INPUT: Please list AUC(0-inf) recorded for the molecule OC[C@H]1O[C@@H](Oc2cc(/C=C/c3cc(O)cc(O)c3)ccc2O)[C@H](O)[C@@H](O)[C@@H]1O [PG, Piceatannol-3′-O-β-D-glucopyranoside]
OUTPUT: 3320 ng·h/mL

----------
Test: Pharmacokinetic study of PGI alone and after repeated GAO in rats
Assay type: in vivo, rat
Conditions: male, SD, rat, plasma, iv, 9 mg/kg, Control group: PGI 9 mg kg−1 tail vein, rats, n = 8
Metric: half-life (h)
Could you give me the number in h? Just the number is fine.

INPUT: Could you please provide reported half-life for OC[C@H]1O[C@@H](Oc2cc(/C=C/c3cc(O)cc(O)c3)ccc2O)[C@H](O)[C@@H](O)[C@@H]1O [PG, Piceatannol-3′-O-β-D-glucopyranoside] ? Thanks!
OUTPUT: 1.01
